- system-under-test: PDE4B (Homo sapiens, UniProt Q07343)
- Sequence (Q07343 whole entry): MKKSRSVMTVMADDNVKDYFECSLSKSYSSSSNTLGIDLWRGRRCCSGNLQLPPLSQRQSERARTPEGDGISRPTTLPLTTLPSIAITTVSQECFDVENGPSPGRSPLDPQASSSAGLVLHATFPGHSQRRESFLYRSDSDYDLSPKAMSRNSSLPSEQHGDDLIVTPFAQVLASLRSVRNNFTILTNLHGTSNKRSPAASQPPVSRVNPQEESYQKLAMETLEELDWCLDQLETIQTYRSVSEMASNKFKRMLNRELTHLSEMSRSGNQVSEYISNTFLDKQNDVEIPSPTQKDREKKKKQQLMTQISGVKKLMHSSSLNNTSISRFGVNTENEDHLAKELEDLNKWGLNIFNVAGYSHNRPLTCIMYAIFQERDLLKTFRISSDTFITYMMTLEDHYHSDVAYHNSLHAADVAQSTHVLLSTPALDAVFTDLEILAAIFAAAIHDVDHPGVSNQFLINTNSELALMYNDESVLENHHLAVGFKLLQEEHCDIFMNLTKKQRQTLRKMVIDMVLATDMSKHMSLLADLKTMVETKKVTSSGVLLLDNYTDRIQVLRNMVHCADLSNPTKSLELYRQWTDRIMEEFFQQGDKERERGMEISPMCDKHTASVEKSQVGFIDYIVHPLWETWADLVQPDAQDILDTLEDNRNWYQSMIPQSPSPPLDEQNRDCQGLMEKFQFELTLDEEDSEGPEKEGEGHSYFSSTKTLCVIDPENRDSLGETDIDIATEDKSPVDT
- method: In-vitro assay for PDE4 enzymes, real-time enzyme-coupled spectrophotometric assay, PDE4B Activity (Table 10)
- Type: biochemical
- test-settings: human PDE4B (hPDE4B), enzyme-coupled spectrophotometric assay; read-out: PDE4B Activity, hPDE4B
pIC50: −log10 of the molar value.
List of pIC50 values.

COc1ccc(Cc2ccc(C#N)nc2)cc1-c1cccc(Cl)c1 | > 5.30
COc1ccc(Cn2cc(C#N)ccc2=O)cc1-c1cccc([N+](=O)[O-])c1 | 4.40 to 4.68

Kindly consider the entry below.
Field pIC50 (system: PDE4B (Homo sapiens, UniProt Q07343)) for entry COc1ccc(Cc2ccc(-n3ccnc3)nc2)c(F)c1-c1cccc(Cl)c1 = > 5.30
